Test: Pharmacokinetic evaluation of compounds in rats
Type: in vivo
Conditions: male, rat, plasma; SD rats, po 10 mg/kg; read-out: Cmax (po)
Protocol: This example was intended to investigate the pharmacokinetics of the compounds of the present invention and ND630 in SD rats under the conditions of intravenous (iv) and intragastric administration (po). […] The concentration of a target compound was detected by LC-MS/MS. According to the plasma concentration-time curve, pharmacokinetic parameters were calculated by using a non-compartmental model (NCA) of software WinNonlin 7.0. […]
property: Cmax (ng/mL)
Numeric only. Scale: ng/mL

Answered examples (2):
molecule	Cmax, ng/mL
COc1ccccc1[C@H](Cn1c(=O)n(C(C)(C)C(=O)O)c(=O)c2c(C)c(-c3ncco3)sc21)OC1CCOCC1 [ND630, reference compound]	2880
COc1ccccc1[C@H](Cn1c(=O)n([C@H]2C[C@@H](CC(=O)O)C2)c(=O)c2c(C)c(-c3ncco3)sc21)OC1CCOCC1	3240

Switching to the query record.
Entry under review: "COc1ccccc1[C@H](Cn1c(=O)n([C@H]2C[C@H](CC(=O)O)C2)c(=O)c2c(C)c(-c3ncco3)sc21)OC1CCOCC1" . Reported Cmax?
7780

----------
Test: Pharmacokinetic evaluation of compounds in rats
Assay type: in vivo
Details: male, rat, plasma; SD rats, po 10 mg/kg; read-out: Tmax (po)
Some molecules, each annotated with its measured Tmax.
Please respond with the number in min and leave the unit unwritten.

molecule	Tmax (min)
COc1ccccc1[C@H](Cn1c(=O)n([C@H]2C[C@@H](CC(=O)O)C2)c(=O)c2c(C)c(-c3ncco3)sc21)OC1CCOCC1 [c-3-2]	24
COc1ccccc1[C@H](Cn1c(=O)n(C(C)(C)C(=O)O)c(=O)c2c(C)c(-c3ncco3)sc21)OC1CCOCC1 [ND630, reference compound]	24

Shift focus to the following entry.
Please report the recorded Tmax for COc1ccccc1[C@H](Cn1c(=O)n([C@H]2C[C@H](CC(=O)O)C2)c(=O)c2c(C)c(-c3ncco3)sc21)OC1CCOCC1 [c-3-1] .
30
